sequences and their reported PBM binding z-score
System: PPARg:RXRa DBDmut IVT, anti-RXR (DBD mutation: RXRa K156A/R161A, NR concentration 270 nM, RXRa partner concentration 90 nM)
experimentalProtocol: PBM binding z-score (relative to random genomic background probes); higher = stronger binding; sequences stand for … in GC…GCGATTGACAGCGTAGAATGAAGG
Reply: number alone, nothing else.

For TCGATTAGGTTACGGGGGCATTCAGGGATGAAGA , what is its reported PBM binding z-score?
5.15

Next sequence up: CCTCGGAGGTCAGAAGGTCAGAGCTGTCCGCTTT
2.53

Next sequence up: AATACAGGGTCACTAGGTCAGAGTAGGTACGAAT
5.74

Next sequence up: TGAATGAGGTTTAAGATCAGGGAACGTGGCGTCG
-0.249

Next sequence up: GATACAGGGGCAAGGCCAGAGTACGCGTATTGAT
0.794

Next sequence up: CCGACTGGGGCAAAGGTTACCACACTCAGTACGA
4.8

Next sequence up: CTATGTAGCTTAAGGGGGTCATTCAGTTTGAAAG
2.86

Next sequence up: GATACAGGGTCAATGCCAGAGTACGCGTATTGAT
2.46

Next sequence up: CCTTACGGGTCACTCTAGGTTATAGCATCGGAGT
3.21

Next sequence up: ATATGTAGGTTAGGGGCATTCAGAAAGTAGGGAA
6.62

Next sequence up: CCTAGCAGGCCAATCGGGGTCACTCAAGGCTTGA
2.04

Next sequence up: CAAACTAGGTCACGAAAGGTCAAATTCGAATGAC
8.4

---

Tested on: RXRa homodimer (NR concentration 180 nM)
experimentalProtocol: PBM binding z-score (relative to random genomic background probes); higher = stronger binding; sequences stand for … in GC…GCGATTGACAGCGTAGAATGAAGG
The label depends only on PBM binding z-score: condition met if it is at least 2, condition not met if it is smaller.

Recorded results for 5 sequences are shown here.
sequenceString: CCTACAGGGCCAAGGTCATTGATCAGTCAAAGCA
classLabel: condition met
//
sequenceString: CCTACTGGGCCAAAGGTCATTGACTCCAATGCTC
classLabel: condition met
//
sequenceString: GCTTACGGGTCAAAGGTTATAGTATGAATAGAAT
classLabel: condition met
//
sequenceString: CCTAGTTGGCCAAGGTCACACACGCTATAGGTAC
classLabel: condition met
//
sequenceString: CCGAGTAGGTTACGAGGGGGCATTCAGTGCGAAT
classLabel: condition met

In plain terms: is recorded PBM binding z-score at least 2 for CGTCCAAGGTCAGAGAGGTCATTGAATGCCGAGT ?
condition met

Next sequence up: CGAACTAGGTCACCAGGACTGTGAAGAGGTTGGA
condition met

Next sequence up: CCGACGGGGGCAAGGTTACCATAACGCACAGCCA
condition met

Next sequence up: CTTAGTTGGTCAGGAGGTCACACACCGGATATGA
condition met

Next sequence up: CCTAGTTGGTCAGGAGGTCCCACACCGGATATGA
condition not met

Next sequence up: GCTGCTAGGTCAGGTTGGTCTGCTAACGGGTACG
condition not met

---

System: LXRb:RXRa (NR concentration 270 nM, RXRa partner concentration 90 nM)
experimentalProtocol: PBM binding z-score (relative to random genomic background probes); higher = stronger binding; sequences stand for … in GC…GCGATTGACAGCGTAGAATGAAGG
recordedMetric: PBM binding z-score
Reply: number alone, nothing else.

sequenceString: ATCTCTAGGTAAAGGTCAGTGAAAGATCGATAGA
systemUnderTest: LXRb:RXRa (NR concentration 270 nM, RXRa partner concentration 90 nM)
PBM binding z-score: 3.42
--
sequenceString: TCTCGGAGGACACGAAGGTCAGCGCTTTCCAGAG
systemUnderTest: LXRb:RXRa (NR concentration 270 nM, RXRa partner concentration 90 nM)
PBM binding z-score: 1.68
--
sequenceString: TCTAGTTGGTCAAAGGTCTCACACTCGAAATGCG
systemUnderTest: LXRb:RXRa (NR concentration 270 nM, RXRa partner concentration 90 nM)
PBM binding z-score: 1.57
--
sequenceString: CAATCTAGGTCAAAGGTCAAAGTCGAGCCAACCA
systemUnderTest: LXRb:RXRa (NR concentration 270 nM, RXRa partner concentration 90 nM)
PBM binding z-score: 7.41
--
sequenceString: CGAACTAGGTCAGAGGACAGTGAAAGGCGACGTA
systemUnderTest: LXRb:RXRa (NR concentration 270 nM, RXRa partner concentration 90 nM)
PBM binding z-score: 0.187
--
sequenceString: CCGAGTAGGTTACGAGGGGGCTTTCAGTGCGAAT
systemUnderTest: LXRb:RXRa (NR concentration 270 nM, RXRa partner concentration 90 nM)
PBM binding z-score: 4.05
--
sequenceString: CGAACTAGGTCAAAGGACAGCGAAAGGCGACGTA
systemUnderTest: LXRb:RXRa (NR concentration 270 nM, RXRa partner concentration 90 nM)
PBM binding z-score: 1.94
--
sequenceString: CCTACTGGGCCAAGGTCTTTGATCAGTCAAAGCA
systemUnderTest: LXRb:RXRa (NR concentration 270 nM, RXRa partner concentration 90 nM)
PBM binding z-score: -0.54

For CCTACTGGGCCAAGGTCATTGAGCAGTCAAAGCA , what is its reported PBM binding z-score?
2.72

Next sequence up: CGTCAAAGTTCAACTAAGGTAACTTAAAGCACGC
4.16

Next sequence up: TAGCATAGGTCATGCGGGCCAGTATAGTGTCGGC
3.33

Next sequence up: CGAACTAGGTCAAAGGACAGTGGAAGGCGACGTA
1.47

Next sequence up: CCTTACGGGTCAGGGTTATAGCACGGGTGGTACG
1.95

Next sequence up: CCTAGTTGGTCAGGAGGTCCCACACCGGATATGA
-0.248

Next sequence up: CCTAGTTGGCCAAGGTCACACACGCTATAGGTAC
3.73

Next sequence up: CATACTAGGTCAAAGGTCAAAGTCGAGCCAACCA
7.48

Next sequence up: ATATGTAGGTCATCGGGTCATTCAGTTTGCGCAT
4.74

Next sequence up: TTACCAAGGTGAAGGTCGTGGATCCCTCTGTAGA
1.45

Next sequence up: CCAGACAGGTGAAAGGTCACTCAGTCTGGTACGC
4.91

Where do the numbers come from? From the supplement of paper PMC6555819.
